Source listed as the kinase profiling compilation of Christmann-Franck et al. (2016).

Target: BMPR1A (human)
Test: KINOMEscan competition binding
Settings: compound 10.0 µM
Record form. Attribute: kinase still bound, per cent of control. Fill in for each entry.
One number for each entry, in %.

Before answering, review these 2 worked examples.
| smiles_code | subject_of_test | measured_parameter | experimental_value |
| --- | --- | --- | --- |
| O=C1NC(=O)/C(=C/c2ccc3nccc(-c4ccncc4)c3c2)S1 | BMPR1A (human) | kinase still bound, per cent of control | 2 |
| COc1cc(N2CCN(C)CC2)ccc1Nc1ncc2c(n1)N(C)c1ccccc1C(=O)N2C | BMPR1A (human) | kinase still bound, per cent of control | 100 |

Next compound, kinase still bound, per cent of control to be filled in.
Challenge: Fill in: kinase still bound, per cent of control of CCN1CCN(C(=O)Cc2ccc(Nc3ncc(F)c(Nc4ccc(C(=O)Nc5ccccc5Cl)cc4)n3)cc2)CC1 is ___
Response given: 3.3

----------
For each of the compounds below, state its kinase still bound, per cent of control.
Target: STK35 (human)
Experiment: KINOMEscan competition binding
Conditions: compound 10.0 µM
One number for each entry, in %.

Past entries and their recorded results:
| smiles_code | kinase still bound, per cent of control / % |
| --- | --- |
| CNC(=O)c1cc(Oc2ccc(NC(=O)Nc3ccc(Cl)c(C(F)(F)F)c3)cc2)ccn1 | 34 |
| O=C(Nc1cccc(Nc2ncc(Br)c(NCCc3cnc[nH]3)n2)c1)N1CCCC1 | 67 |
| NC(=O)Nc1cc(-c2cccc(F)c2)sc1C(=O)N[C@@H]1CCCNC1 | 1.1 |
| CCN1CCN(C(=O)Cc2ccc(Nc3ncc(F)c(Nc4ccc(C(=O)Nc5ccccc5Cl)cc4)n3)cc2)CC1 | 91 |

API: the following record is the query input.
Challenge: Could you tell me which kinase still bound, per cent of control is on file for CCN(CC)CCCCNc1ncc2c(n1)N(C)C(=O)N(c1c(Cl)c(OC)cc(OC)c1Cl)C2 ?
Response given: 100

----------
Target: HIPK2 (human) (UniProt Q9H2X6)
Sequence (Q9H2X6 whole entry, looked up): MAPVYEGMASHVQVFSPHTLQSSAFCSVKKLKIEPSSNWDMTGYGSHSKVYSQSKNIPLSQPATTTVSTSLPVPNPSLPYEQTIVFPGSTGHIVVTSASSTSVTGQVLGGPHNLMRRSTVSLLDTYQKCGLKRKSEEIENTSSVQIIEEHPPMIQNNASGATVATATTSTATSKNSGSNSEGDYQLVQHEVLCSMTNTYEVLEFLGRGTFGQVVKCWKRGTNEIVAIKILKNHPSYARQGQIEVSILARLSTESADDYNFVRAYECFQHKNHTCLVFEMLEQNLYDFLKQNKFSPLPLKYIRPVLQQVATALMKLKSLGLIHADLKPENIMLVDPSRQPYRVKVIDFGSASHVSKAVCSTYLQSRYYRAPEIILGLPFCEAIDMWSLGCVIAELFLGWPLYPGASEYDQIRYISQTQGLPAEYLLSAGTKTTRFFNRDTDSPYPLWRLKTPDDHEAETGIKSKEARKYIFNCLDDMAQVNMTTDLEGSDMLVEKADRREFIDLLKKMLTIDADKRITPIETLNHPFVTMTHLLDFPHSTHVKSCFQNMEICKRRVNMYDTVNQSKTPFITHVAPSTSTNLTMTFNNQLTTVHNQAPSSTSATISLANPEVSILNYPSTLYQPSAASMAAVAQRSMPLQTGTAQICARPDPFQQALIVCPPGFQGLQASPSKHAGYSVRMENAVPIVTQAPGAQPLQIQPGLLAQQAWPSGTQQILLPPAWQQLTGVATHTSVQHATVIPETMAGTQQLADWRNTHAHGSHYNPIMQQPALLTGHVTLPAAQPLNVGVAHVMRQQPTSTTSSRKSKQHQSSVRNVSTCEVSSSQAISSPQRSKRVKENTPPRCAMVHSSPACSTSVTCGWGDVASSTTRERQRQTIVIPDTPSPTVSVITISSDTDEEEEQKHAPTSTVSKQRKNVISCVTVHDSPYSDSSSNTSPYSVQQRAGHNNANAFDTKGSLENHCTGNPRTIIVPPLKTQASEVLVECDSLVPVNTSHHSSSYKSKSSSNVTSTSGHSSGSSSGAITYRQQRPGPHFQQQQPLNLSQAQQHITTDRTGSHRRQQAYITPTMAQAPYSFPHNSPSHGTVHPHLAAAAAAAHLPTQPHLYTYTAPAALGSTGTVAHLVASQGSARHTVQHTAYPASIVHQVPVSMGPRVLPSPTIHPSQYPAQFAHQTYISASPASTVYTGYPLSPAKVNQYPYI
Test: KINOMEscan competition binding
Settings: compound 10.0 µM
measured_parameter: kinase still bound, per cent of control (%)
One number for each entry, in %.

| smiles_code | subject_of_test | kinase still bound, per cent of control, % |
| --- | --- | --- |
| COc1cc2ncn(-c3cc(OCc4ccccc4C(F)(F)F)c(C(N)=O)s3)c2cc1OC | HIPK2 (human) (UniProt Q9H2X6) | 89 |

Value sought for every listed compound: kinase still bound, per cent of control.
1. N#CCNC(=O)c1ccc(-c2ccnc(Nc3ccc(N4CCOCC4)cc3)n2)cc1
2. NC(=O)Nc1cc(-c2cccc(F)c2)sc1C(=O)N[C@@H]1CCCNC1
3. CS(=O)(=O)N1CCN(Cc2cc3nc(-c4cccc5[nH]ncc45)nc(N4CCOCC4)c3s2)CC1
4. O=c1cc(N2CCOCC2)oc2c(-c3cccc4c3sc3ccccc34)cccc12
5. COc1ccc(N(C(=O)Oc2c(C)cccc2C)c2ccnc(Nc3ccc(N4CCN(C)CC4)cc3)n2)c(OC)c1
6. COc1cc(C(=O)N2CCC(N3CCN(C)CC3)CC2)ccc1Nc1ncc2c(n1)N(C)c1ccccc1C(=O)N2C

Response given:
1. 15
2. 13
3. 100
4. 100
5. 100
6. 88

----------
Tested on: FLT3 (human), P36888 [D835H]
Assay: KINOMEscan competition binding
Conditions: compound 10.0 µM
Decide using kinase still bound, per cent of control alone. Strictly below 60%: 1. Equal to or above 60%: -1.

Example results:
| smiles_code | label_value |
| --- | --- |
| C=CC(=O)Nc1cc(NC(=O)c2ccc(C)c(NC(=O)c3ccno3)c2)cc(C(F)(F)F)c1 | -1 |
| CC[C@@H]1C(=O)N(C)c2cnc(Nc3ccc(C(=O)NC4CCN(C)CC4)cc3OC)nc2N1C1CCCC1 | -1 |
| Cn1c(=O)n(-c2ccc(C(C)(C)C#N)cc2)c2c3cc(-c4cnc5ccccc5c4)ccc3ncc21 | 1 |

Challenge: Say whether its kinase still bound, per cent of control is strictly beneath 60%. Entry: N#Cc1cc(-c2ccnc(Nc3ccc(-n4cnc(-c5cccnc5)n4)cc3)n2)cc(N2CCOCC2)c1
Response given: 1

Challenge: Dear reviewer, please state whether Cc1cc([C@@H](C)Nc2ccccc2C(=O)O)c2nc(N3CCOCC3)cc(=O)n2c1 has kinase still bound, per cent of control strictly beneath 60%.
Response given: 1

Challenge: is_below(kinase still bound, per cent of control, 60%) for Cc1ccc2nc(NCCN)c3ncc(C)n3c2c1 ?
Response given: -1

Challenge: Quick check: kinase still bound, per cent of control of COc1cc2ncnc(Nc3cccc(Cl)c3)c2cc1OC under 60%?
Response given: 1

Challenge: Please state whether kinase still bound, per cent of control is below 60% for COc1cc(N2CCN(C)CC2)ccc1Nc1nc(N)c(C(=O)c2c(Cl)cccc2Cl)s1
Response given: -1

----------
Biological target: TNIK (human)
Assay: KINOMEscan competition binding
Conditions: compound 10.0 µM
Label True when kinase still bound, per cent of control is strictly below 40%; at or above that, label False.

| smiles_code | label_value |
| --- | --- |
| O=C(Nc1cccc(Nc2ncc(Br)c(NCCc3cnc[nH]3)n2)c1)N1CCCC1 | True |

Challenge: # TODO verify kinase still bound, per cent of control < 40% strictly for this molecule: O=c1cc(N2CCOCC2)oc2c(-c3cccc4c3sc3ccccc34)cccc12
Response given: False

Challenge: For CN(C)C/C=C/C(=O)Nc1ccc(C(=O)Nc2cccc(Nc3nccc(-c4cccnc4)n3)c2)cc1 , is the recorded kinase still bound, per cent of control below the cut-off of 40%?
Response given: True

Challenge: Is 40% strictly greater than the molecule's reported kinase still bound, per cent of control? molecule: CNC(=O)c1ccc(Nc2cc(Nc3ccccc3S(=O)(=O)C(C)C)c3cc[nH]c3n2)nc1
Response given: True

Challenge: Please check: kinase still bound, per cent of control for CS(=O)(=O)N1CCN(Cc2cc3nc(-c4cccc5[nH]ncc45)nc(N4CCOCC4)c3s2)CC1 , strictly under 40% or not?
Response given: False

Challenge: API: query returns whether the molecule falls strictly under 40% in kinase still bound, per cent of control. Query: O=C1NC(=O)/C(=C/c2ccc3nccc(-c4ccncc4)c3c2)S1
Response given: True

----------
Molecular target: MAK (human)
Experiment: KINOMEscan competition binding
Conditions: compound 10.0 µM
Assignment: determine reported kinase still bound, per cent of control for the given compounds.
Answers are plain numbers, in %.

Worked examples, 8 compounds total:
| smiles_code | subject_of_test | kinase still bound, per cent of control / % |
| --- | --- | --- |
| CNC(=O)c1cc(Oc2ccc(NC(=O)Nc3ccc(Cl)c(C(F)(F)F)c3)cc2)ccn1 | MAK (human) | 41 |
| O=C1NC(=O)/C(=C/c2ccc3nccc(-c4ccncc4)c3c2)S1 | MAK (human) | 100 |
| C=CC(=O)Nc1cc(-n2c(=O)ccc3cnc4ccc(-c5cn[nH]c5)cc4c32)ccc1C | MAK (human) | 94 |
| C[C@@H](Oc1cc(-c2cnn(C3CCNCC3)c2)cnc1N)c1c(Cl)ccc(F)c1Cl | MAK (human) | 63 |
| COc1cc(N2CCN(C)CC2)ccc1Nc1ncc2c(n1)N(C)c1ccccc1C(=O)N2C | MAK (human) | 100 |
| COc1cc2ncnc(-n3nc(-c4ccccn4)nc3N)c2cc1OC | MAK (human) | 100 |
| O=C(Nc1cccc(Nc2ncc(Br)c(NCCc3cnc[nH]3)n2)c1)N1CCCC1 | MAK (human) | 100 |
| CS(=O)(=O)N1CCN(Cc2cc3nc(-c4cccc5[nH]ncc45)nc(N4CCOCC4)c3s2)CC1 | MAK (human) | 100 |

// moving on: another record for kinase still bound, per cent of control
Challenge: Which value of kinase still bound, per cent of control has been reported for CCN1CCN(C(=O)Cc2ccc(Nc3ncc(F)c(Nc4ccc(C(=O)Nc5ccccc5Cl)cc4)n3)cc2)CC1 in the records?
Response given: 100

----------
Biological target: ERBB4 (human) (UniProt Q15303)
Sequence (Q15303 whole entry, looked up): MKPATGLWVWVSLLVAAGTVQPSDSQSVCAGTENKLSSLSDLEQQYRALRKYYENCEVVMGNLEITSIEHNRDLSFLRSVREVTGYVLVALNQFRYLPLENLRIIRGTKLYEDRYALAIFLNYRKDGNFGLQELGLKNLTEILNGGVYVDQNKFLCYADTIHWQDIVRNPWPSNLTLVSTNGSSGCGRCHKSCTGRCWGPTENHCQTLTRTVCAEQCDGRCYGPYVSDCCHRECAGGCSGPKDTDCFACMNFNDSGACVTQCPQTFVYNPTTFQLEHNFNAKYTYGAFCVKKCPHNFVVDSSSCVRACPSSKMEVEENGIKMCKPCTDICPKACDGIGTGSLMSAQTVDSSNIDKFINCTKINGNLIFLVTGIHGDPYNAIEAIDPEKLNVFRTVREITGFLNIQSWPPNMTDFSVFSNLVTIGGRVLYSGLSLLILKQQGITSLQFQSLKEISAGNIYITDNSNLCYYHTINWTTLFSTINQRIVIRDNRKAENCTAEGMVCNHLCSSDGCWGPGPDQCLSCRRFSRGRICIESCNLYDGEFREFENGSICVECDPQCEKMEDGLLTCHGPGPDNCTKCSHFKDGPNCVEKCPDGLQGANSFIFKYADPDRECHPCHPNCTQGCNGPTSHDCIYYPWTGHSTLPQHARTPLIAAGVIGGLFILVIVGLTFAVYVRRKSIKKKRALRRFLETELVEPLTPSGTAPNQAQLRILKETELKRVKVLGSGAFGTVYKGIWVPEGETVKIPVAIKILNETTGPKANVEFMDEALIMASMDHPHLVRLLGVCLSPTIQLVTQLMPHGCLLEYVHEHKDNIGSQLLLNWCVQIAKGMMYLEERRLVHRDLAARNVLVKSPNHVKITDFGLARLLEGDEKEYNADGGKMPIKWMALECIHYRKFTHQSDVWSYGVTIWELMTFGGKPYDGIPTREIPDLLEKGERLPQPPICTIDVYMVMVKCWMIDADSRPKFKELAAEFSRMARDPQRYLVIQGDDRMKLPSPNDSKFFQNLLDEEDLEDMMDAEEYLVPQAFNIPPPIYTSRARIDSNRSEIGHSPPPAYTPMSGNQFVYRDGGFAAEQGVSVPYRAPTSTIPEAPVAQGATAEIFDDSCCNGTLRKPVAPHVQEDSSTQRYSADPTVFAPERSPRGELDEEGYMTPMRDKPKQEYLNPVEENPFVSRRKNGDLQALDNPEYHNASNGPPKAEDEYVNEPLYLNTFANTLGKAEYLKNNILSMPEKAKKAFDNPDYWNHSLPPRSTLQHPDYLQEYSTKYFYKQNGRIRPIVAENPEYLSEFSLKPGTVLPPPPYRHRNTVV
Assay: KINOMEscan competition binding
Conditions: compound 10.0 µM
Kindly supply the reported kinase still bound, per cent of control values for the records listed here.
Numbers only, in %.

| smiles_code | unit_string | kinase still bound, per cent of control |
| --- | --- | --- |
| C=CC(=O)Nc1cc(-n2c(=O)ccc3cnc4ccc(-c5cn[nH]c5)cc4c32)ccc1C | % | 22 |
| C=CC(=O)Nc1ccc(CN(C(=O)Nc2c(Cl)c(OC)cc(OC)c2Cl)c2cc(Nc3ccc(N4CCN(C)CC4)cc3)ncn2)cc1 | % | 2.2 |
| N#CCNC(=O)c1ccc(-c2ccnc(Nc3ccc(N4CCOCC4)cc3)n2)cc1 | % | 100 |
| O=c1cc(N2CCOCC2)oc2c(-c3cccc4c3sc3ccccc34)cccc12 | % | 92 |

// next entry
Challenge: Give its kinase still bound, per cent of control value. Item: CNC(=O)c1cc(Oc2ccc(NC(=O)Nc3ccc(Cl)c(C(F)(F)F)c3)cc2)ccn1
Response given: 100
